- MEASURED TARGET: EGFR V3 (Homo sapiens, UniProt P00533, DELINS30-297G)
- Construct: expressed in transfected cells; host or cells: BaF3 (murine pro-B), retroviral pMXs-IRES-Blasticidin
- Sequence (P00533 with tags, fused parts or gaps DELINS30-297G): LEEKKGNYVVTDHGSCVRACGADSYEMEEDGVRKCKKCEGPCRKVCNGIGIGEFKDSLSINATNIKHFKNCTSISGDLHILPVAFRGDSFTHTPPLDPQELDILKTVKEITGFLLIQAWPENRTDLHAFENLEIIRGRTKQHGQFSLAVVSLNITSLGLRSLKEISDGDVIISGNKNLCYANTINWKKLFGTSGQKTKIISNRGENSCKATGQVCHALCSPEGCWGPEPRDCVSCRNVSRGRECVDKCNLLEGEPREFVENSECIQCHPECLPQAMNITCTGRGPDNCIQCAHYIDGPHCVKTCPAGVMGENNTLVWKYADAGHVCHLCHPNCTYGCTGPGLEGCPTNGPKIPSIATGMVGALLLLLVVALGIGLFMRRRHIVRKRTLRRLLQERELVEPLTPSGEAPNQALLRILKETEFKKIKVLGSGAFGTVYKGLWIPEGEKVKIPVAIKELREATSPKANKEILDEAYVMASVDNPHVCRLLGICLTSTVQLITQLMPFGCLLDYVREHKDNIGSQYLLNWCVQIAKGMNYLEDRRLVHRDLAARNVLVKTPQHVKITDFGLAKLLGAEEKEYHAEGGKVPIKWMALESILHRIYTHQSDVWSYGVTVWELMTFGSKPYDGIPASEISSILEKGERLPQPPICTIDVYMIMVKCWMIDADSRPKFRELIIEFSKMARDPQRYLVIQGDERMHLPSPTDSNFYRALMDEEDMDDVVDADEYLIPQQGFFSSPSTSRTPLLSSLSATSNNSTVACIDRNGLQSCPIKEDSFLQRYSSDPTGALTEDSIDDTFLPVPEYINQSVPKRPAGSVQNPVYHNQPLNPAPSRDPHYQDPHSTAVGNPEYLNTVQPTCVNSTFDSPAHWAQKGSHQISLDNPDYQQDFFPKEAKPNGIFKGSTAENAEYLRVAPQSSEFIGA
- ASSAY INFO: BaF3 cell proliferation assay, EGFR V3 (Table A)
- Assay type: cell-based
- EXPERIMENTAL PARAMETERS: potency code, 3 days, CellTiterGlo, read-out: EGFR V3 (Activity for Inhibiting EGFR)
- Experimental: Retroviral Production: EGFR mutants were subcloned into pMXs-IRES-Blasticidin (RTV-016, Cell Biolabs, San Diego, Calif.). Retroviral expression vector retrovirus was produced by transient transfection of HEK 293T cells with the retroviral EGFR mutant expression vector pMXs-IRES-Blasticidin (RTV-016, Cell Biolabs), pCMV-Gag-Pol vector and pCMV-VSV-G-Envelope vector. […] EC50 values were determined with the same application.
pIC50: −log10 of the molar value.
Can you tell me pIC50 for the items I'm about to list?

MOLECULE | ASSAY METRIC | RESULT VALUE
C=CC(=O)Nc1cc2c(Nc3ccc(Oc4ccccc4)cc3)ncnc2cc1OCCN1CCOCC1 | pIC50 | 7.00 to 7.30
C=CC(=O)Nc1cc2c(Nc3ccc(OCc4ccccn4)c(Cl)c3)ncnc2cc1OCCCN1CCCC1 | pIC50 | 7.52 to 7.70

I'm hoping you can list pIC50 for every molecule here, please.
1. C=CC(=O)Nc1cc2c(Nc3ccc(OCc4cccc(F)c4)c(Cl)c3)ncnc2cc1OCCCN1CC(OC)C1
2. C=CC(=O)Nc1cc2c(Nc3ccc(OCc4ccccn4)c(Cl)c3)ncnc2cc1OCCN(C)C1CCOC1 (centres unmarked)

[reply]
1: 6.70 to 7.00; 2: 7.30 to 7.52

Batch: pIC50 for all items listed.
1. C=CC(=O)Nc1cc2c(Nc3ccc(OCc4cnccn4)c(Cl)c3)ncnc2cc1OCCCN1CCOCC1
2. C=CC(=O)Nc1cc2c(Nc3ccc(OCc4ccccn4)c(Cl)c3)ncnc2cc1OCCC1(N(C)C)CC1
3. C=CC(=O)Nc1cc2c(Nc3ccc(OCc4cccc(F)c4)c(Cl)c3)ncnc2cc1N(C)CCN(C)C

[reply]
7.30 to 7.52
7.30 to 7.52
6.70 to 7.00

Record pIC50 for all entries; do not skip any.
1. C=CC(=O)Nc1cc2c(Nc3cc(Cl)c(OCc4ccccn4)cc3F)ncnc2cc1OC1CCN(C)C1 (centres unmarked)
2. C=CC(=O)Nc1cc2c(Nc3ccc(OCc4ccccn4)c(Cl)c3)ncnc2cc1OCCN1CCC(OC)CC1

[reply]
1. 7.70 to 8.00
2. 7.30 to 7.52

----------
Answer each item with its documented pIC50.
- MEASURED TARGET: HER2 YVMA (Homo sapiens, UniProt P04626, INS775YVMA)
- Construct: expressed in transfected cells; host or cells: BaF3 (murine pro-B)
- Sequence (P04626 with tags, fused parts or gaps INS775YVMA): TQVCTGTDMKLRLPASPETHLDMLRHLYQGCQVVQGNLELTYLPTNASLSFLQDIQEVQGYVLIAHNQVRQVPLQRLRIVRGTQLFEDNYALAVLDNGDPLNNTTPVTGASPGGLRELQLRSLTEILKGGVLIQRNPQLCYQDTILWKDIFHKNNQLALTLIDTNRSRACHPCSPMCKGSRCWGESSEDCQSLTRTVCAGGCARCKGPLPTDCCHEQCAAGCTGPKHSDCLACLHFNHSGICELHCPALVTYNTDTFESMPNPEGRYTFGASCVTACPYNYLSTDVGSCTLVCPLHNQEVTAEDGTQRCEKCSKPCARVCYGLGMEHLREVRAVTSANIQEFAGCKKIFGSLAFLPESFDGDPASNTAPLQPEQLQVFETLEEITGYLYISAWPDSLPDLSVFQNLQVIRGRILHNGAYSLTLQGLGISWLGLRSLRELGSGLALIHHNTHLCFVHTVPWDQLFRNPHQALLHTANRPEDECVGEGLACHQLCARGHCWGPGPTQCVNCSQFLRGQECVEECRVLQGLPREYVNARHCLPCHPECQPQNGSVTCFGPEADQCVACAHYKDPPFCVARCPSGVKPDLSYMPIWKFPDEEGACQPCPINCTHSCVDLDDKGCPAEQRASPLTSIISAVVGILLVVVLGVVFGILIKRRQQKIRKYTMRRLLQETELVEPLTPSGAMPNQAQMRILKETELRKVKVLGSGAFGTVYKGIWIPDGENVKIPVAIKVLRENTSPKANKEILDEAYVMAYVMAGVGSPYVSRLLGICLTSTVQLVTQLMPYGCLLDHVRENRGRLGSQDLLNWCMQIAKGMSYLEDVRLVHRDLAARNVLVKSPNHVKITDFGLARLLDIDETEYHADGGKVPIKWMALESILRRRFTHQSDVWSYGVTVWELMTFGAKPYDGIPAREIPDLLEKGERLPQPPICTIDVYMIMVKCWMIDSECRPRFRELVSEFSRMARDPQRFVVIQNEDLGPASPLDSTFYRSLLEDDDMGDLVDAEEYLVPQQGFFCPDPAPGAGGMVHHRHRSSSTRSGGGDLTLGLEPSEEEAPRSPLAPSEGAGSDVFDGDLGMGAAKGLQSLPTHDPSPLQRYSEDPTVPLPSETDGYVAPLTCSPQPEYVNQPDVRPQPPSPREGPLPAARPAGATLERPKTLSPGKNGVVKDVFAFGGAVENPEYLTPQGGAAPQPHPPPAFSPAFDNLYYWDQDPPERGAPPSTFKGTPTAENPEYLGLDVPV
- ASSAY INFO: BaF3 cell proliferation assay, HER2 YVMA (Table B)
- Format: cell-based
- EXPERIMENTAL PARAMETERS: potency code, 3 days, CellTiterGlo, read-out: HER2 YVMA (Activity for Inhibiting HER2)
pIC50: −log10 of the molar value.

Check out these entries, answers already filled in.
MOLECULE | pIC50
C=CC(=O)Nc1cc2c(Nc3ccc(OCc4ccnc(C)c4)c(Cl)c3)ncnc2cc1OCCN1CCOCC1 | < 6.00
C=CC(=O)Nc1cc2c(Nc3ccc(OCc4ccccn4)c(Cl)c3)ncnc2cc1OCCCN1CCOCC1 | 7.52 to 7.70
CC#CC(=O)Nc1cc2c(Nc3cc(Cl)c(OCc4cccc(F)c4)cc3F)ncnc2cc1OCCCN1CCOCC1 | 7.30 to 7.52
C=CC(=O)Nc1cc2c(Nc3ccc(OCc4ccccn4)c(Cl)c3)ncnc2cc1OCCN1CCCC1 | 7.30 to 7.52
C=CC(=O)Nc1cc2c(Nc3ccc(OCc4ccccn4)c(Cl)c3)ncnc2cc1OCCCN1CC2CC1CO2 (stereo not shown) | 7.70 to 8.00

Below are 2 molecules. Give each one its pIC50.
1. C=CC(=O)Nc1cc2c(Nc3ccc(OCc4cccnn4)c(Cl)c3)ncnc2cc1OCCN1CCOCC1
2. C=CC(=O)Nc1cc2c(Nc3ccc(OCc4ccccn4)c(Cl)c3)ncnc2cc1N1CC(N(C)C)C1

[reply]
["6.30 to 6.52", "< 6.00"]
